We begin with a simple list: items and their reported EC50.
Target: human CLEC12A expressed on cells (human) (UniProt Q5QGZ9)
Sequence (Q5QGZ9 whole entry): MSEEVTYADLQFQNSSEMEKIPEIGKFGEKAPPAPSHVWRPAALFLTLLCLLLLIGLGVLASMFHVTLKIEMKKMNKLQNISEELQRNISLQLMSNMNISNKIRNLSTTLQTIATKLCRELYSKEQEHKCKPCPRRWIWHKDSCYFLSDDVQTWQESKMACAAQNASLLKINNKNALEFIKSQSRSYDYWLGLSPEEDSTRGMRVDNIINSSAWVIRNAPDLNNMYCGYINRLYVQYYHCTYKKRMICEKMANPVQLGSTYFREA
Assay: flow cytometry, hCLEC12A+Ba/F3 cells
Answer with a number only, understood to be in nM.

Worked examples follow.
stdin: Consider the binder AB0195 (bispecific antibody, part only; not given: Fc and unrelated binding arm, not shown: another chain or arm of the molecule; a dimerising Fc or GST) scFv: EVQLVESGGGVVQPGGSLRLSCAASGFTFNAFGMHWVRQAPGKCLEWVAFISSGSTSIYYANTVKGRFTISRDNSKNTLYLQMNSLRAEDTAVYYCARDGYPTGGAMDYWGQGTSVTVSSGGGGSGGGGSGGGGSGGGGSDIKMTQSPSSLSASVGDRVTITCKASQDIYNYLSWFQQKPGKAPKPLIYRANILVSGVPSRFSGSGSGQDYTLTISSLQPEDIATYYCLQFDAFPFTFGCGTKLEIK and give its measured EC50.
stdout: 0.6

stdin: EC50 for AB0010 (bispecific antibody, part only; not given: constant domains, Fc, unrelated scFv, V domains shown, not shown: another chain or arm of the molecule; a dimerising Fc or GST) VH: QLQLQESGPGLVKPSETLSLTCTVSGFSLTNYGLHWIRQPPGKGLEWIGVIWSGGKTDYNPSLKSRVTISKDTSKNQFSLKLSSVQAADTAVYYCAKYDYDDSLDYWGQGTLVTVSS VL: DIQMTQSPSSLSASVGDRVTITCHASQNINFWLSWYQQKPGKAPKLLIYEASNLHTGVPSRFSGSGSGTRFTLTISSLQPEDIATYYCQQSHSYPLTFGGGTKLEIK ?
stdout: 6.13

New cases:
stdin: Endpoint output: EC50 of F3′-1295 (bispecific antibody, part only; not given: Fc and unrelated binding arm, not shown: another chain or arm of the molecule; a dimerising Fc or GST) scFv: QLQLQESGPGLVKPSETLSLTCTVSGFSLTNYGLHWIRQPPGKCLEWIGVIWSGGKTDYNPSLKSRVTISKDTSKNQFSLKLSSVQAADTAVYYCAKYDYDDSLDYWGQGTLVTVSSGGGGSGGGGSGGGGSGGGGSDIQMTQSPSSLSASVGDRVTITCHASQNINFWLSWYQQKPGKIPKLLIYEASNLHTGVPSRFSGSGSGTRFTLTISSLQPEDIATYYCQQSHSYPLTFGCGTKLEIK . Value?
stdout: 26.1
